Molecular target: H^+,K^+ -ATPase (Oryctolagus cuniculus)
Construct: Rabbit gastric glands were homogenized and microsomal fractions were prepared
Sequence (P27112 2-1035 limits assumed): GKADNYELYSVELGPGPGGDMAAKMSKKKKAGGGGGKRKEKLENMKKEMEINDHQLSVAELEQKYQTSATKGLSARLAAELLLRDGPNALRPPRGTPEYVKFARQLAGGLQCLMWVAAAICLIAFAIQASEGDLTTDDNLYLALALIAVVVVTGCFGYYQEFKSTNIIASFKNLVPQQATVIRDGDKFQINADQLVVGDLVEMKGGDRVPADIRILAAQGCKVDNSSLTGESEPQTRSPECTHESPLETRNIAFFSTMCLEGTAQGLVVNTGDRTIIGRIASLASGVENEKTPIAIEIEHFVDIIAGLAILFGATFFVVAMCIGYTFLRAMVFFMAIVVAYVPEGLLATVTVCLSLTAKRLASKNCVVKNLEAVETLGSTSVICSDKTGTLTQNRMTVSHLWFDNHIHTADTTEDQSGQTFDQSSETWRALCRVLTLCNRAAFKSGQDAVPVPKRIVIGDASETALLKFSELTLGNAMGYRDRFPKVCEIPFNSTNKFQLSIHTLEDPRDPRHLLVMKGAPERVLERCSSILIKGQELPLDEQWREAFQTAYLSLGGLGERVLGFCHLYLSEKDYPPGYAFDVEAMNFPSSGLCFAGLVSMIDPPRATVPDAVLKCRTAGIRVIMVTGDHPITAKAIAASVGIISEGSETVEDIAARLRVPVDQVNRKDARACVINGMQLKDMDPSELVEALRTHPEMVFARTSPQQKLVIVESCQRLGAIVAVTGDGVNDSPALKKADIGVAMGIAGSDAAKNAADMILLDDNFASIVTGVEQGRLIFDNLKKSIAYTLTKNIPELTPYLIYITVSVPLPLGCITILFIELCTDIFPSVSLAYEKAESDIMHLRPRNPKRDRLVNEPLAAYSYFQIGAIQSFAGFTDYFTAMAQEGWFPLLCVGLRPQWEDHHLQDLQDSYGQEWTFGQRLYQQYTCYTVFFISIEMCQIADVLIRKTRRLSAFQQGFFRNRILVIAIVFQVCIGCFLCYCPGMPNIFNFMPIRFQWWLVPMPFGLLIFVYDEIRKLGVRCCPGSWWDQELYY
Sequence (P18597 whole entry partner): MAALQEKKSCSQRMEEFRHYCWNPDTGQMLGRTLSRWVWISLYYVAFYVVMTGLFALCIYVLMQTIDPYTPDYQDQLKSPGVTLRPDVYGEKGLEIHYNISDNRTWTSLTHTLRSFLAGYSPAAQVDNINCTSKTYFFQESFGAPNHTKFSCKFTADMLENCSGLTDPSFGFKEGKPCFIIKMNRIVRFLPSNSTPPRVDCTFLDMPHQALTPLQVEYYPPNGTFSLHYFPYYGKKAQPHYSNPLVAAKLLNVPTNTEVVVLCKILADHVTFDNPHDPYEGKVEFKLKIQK
Test: Inhibitory effects on the activity of H^+,K^+ -ATPase
Settings: H^+,K^+ -ATPase-containing light membrane fractions from rabbit gastric glands; read-out: 50% Enzyme inhibitory concentration (IC50)
pIC50: −log10 of the molar value.
The following molecules are shown together with reported pIC50 values.
Parameter: pIC50

| Molecule | Measured result |
| --- | --- |
| COc1ccc2[nH]c([S+]([O-])Cc3ncc(C)c(OC)c3C)nc2c1 (stereo not drawn) [omeprazole, reference compound] | 5.21 |
| Cc1cnc(COc2ccccc2)cc1N1CCCCC1.Cl [Test compound 1, hydrochloride] | 5.08 |
| Cc1cnc(/C=C\c2cccc3ccccc23)cc1OC1CCCCC1 | 5.46 |
